Data origin, for the record: ChEMBL document CHEMBL1138799

System: Human immunodeficiency virus 1
test-details: Inhibitory activity against HIV-1 double mutants strain 227L and 106A
Type: functional, organism-based
Entries annotated with measured IC50
reported-metric: IC50 (nM)

>>> df
                             compound_string     val
 0  CCc1c(C)nc(O)c(N(C)C)c1C(=O)c1cccc(/C(C)=C/C#N)c1    1250
 1  CCc1c(C)[nH]c(=O)c(N(C)C)c1C(=O)c1cc(C)cc(C)c1     390
 2  O=C1Nc2ccc(Cl)cc2[C@@](C#CC2CC2)(C(F)(F)F)O1      20
 3           Cc1ccnc2c1NC(=O)c1cccnc1N2C1CC1      20
 4  CCc1c(C)nc(O)c(N(C)C)c1C(=O)c1cccc(C#N)c1      50
 5  CCc1c(C)nc(O)c(N(C)C)c1C(=O)c1cccc(Br)c1     100
 6  CCc1c(C)nc(O)c(N(C)C)c1C(=O)c1cc(Cl)cc(Cl)c1      60
 7   CCOCn1c(Cc2ccccc2)c(C(C)C)c(=O)[nH]c1=O  100000
 8  CCc1c(C)nc(O)c(N(C)C)c1Cc1cc(Cl)cc(Cl)c1     500
 9  CCc1c(C)nc(O)c(N(C)C)c1C(=O)c1cccc(/C=C/C#N)c1    1000
10  CCc1c(C)nc(O)c(N(C)C)c1Cc1cccc(/C=C/C#N)c1    3160

----------
Test system: Human immunodeficiency virus 1
test-details: Inhibitory activity against HIV-1 mutant strain 188L
Format: functional, organism-based
Entries annotated with measured log10 of IC50
reported-metric: log10 of IC50 (log10 of the value in nM)

>>> df
                                   compound                          system   val
0      CCc1c(C)nc(O)c(N(C)C)c1Cc1cccc(Br)c1  Human immunodeficiency virus 1  3.40
1  CCc1c(C)nc(O)c(N(C)C)c1C(=O)c1cccc(Br)c1  Human immunodeficiency virus 1  2.90
2  CCc1c(C)nc(O)c(N(C)C)c1C(=O)c1cccc(C(C)C#N)c1 (stereo not given)  Human immunodeficiency virus 1  2.40
3       CCc1c(C)nc(O)c(N(C)C)c1C(=O)c1cccs1  Human immunodeficiency virus 1  5.00
4   CCc1c(C)nc(O)c(N(C)C)c1C(=O)c1cccc(C)c1  Human immunodeficiency virus 1  3.30
5  CCc1c(C)[nH]c(=O)c(N(C)C)c1C(=O)c1cc(C)cc(C)c1  Human immunodeficiency virus 1  2.18
6          CCc1c(C)nc(O)c(N(C)C)c1Cc1ccccc1  Human immunodeficiency virus 1  3.90
7  CCc1c(C)nc(O)c(N(C)C)c1C(=O)c1cccc(/C=C(\C)C#N)c1  Human immunodeficiency virus 1  2.80
8  CCc1c(C)nc(O)c(N(C)C)c1Cc1cc(Cl)cc(Cl)c1  Human immunodeficiency virus 1  2.80
9           Cc1ccnc2c1NC(=O)c1cccnc1N2C1CC1  Human immunodeficiency virus 1  5.00

----------
System: Human immunodeficiency virus 1
test-details: Inhibitory activity against HIV-1 mutant strain 188L
Assay type: functional, organism-based
pIC50: −log10 of the molar value.
reported-metric: pIC50

In [3]: df
Out[3]:
                             compound_string   val
 0       CCc1c(C)nc(O)c(N(C)C)c1Cc1cccc(C)c1  6.00
 1  CCc1c(C)nc(O)c(N(C)C)c1C(=O)c1cc(Cl)cc(Cl)c1  6.51
 2      CCc1c(C)nc(O)c(N(C)C)c1Cc1cccc(OC)c1  6.51
 3  CCc1c(C)[nH]c(=O)c(N(C)C)c1Cc1cc(C)cc(C)c1  6.60
 4  CCc1c(C)nc(O)c(N(C)C)c1C(=O)c1cccc(/C(C)=C(\C)C#N)c1  5.80
 5  CCc1c(C)nc(O)c(N(C)C)c1C(=O)c1ccc(OC)c(C)c1  4.00
 6          CCc1c(C)nc(O)c(N(C)C)c1Cc1cccnc1  5.40
 7  CCc1c(C)nc(O)c(N(C)C)c1C(=O)c1cccc(/C=C/C#N)c1  6.82
 8  CCc1c(C)nc(O)c(N(C)C)c1Cc1cn(C)c2ccccc12  6.60
 9  CCc1c(C)nc(O)c(N(C)C)c1C(=O)c1cccc(/C=C/c2cccnc2)c1  6.82
10   CCc1c(C)nc(O)c(N(C)C)c1C(=O)c1cccc(N)c1  5.00

----------
Test system: Human immunodeficiency virus 1
test-details: Inhibitory activity against HIV-1 mutant strain 190A
Format: functional, organism-based
pIC50: −log10 of the molar value.
Entries annotated with measured pIC50
reported-metric: pIC50

>>> df
                            compound_string  reported_metric   val
0  CCc1c(C)nc(O)c(N(C)C)c1Cc1cccc(/C=C/C#N)c1            pIC50  8.10
1  CCc1c(C)nc(O)c(N(C)C)c1C(=O)c1cccc(/C(C)=C/C#N)c1            pIC50  8.22
2  CCc1c(C)nc(O)c(N(C)C)c1C(=O)c1cccc(C#N)c1            pIC50  8.30
3  CCc1c(C)nc(O)c(N(C)C)c1C(=O)c1cccc(/C=C/C#N)c1            pIC50  8.22
4  CCc1c(C)[nH]c(=O)c(N(C)C)c1C(=O)c1cc(C)cc(C)c1            pIC50  8.00
5  CCc1c(C)[nH]c(=O)c(N(C)C)c1Cc1cc(C)cc(C)c1            pIC50  7.22

----------
System: Human immunodeficiency virus 1
test-details: Inhibitory activity against HIV-1 mutant strain 179E
Assay type: functional, organism-based
pIC50: −log10 of the molar value.
reported-metric: pIC50

>>> df
                                   compound   val
0  CCc1c(C)nc(O)c(N(C)C)c1C(=O)c1cccc(Br)c1  8.30
1  CCc1c(C)[nH]c(=O)c(N(C)C)c1C(=O)c1cc(C)cc(C)c1  8.70
2  CCOCn1c(Cc2ccccc2)c(C(C)C)c(=O)[nH]c1=O [EMIVIRINE]  7.52
3  Cc1ccnc2c1NC(=O)c1cccnc1N2C1CC1 [NEVIRAPINE]  6.72
4  CCc1c(C)nc(O)c(N(C)C)c1C(=O)c1cccc(/C=C/C#N)c1  9.00
5  CCc1c(C)nc(O)c(N(C)C)c1Cc1cccc(/C=C/C#N)c1  9.00
6  CCc1c(C)nc(O)c(N(C)C)c1C(=O)c1cccc(C#N)c1  8.40
7  CCc1c(C)nc(O)c(N(C)C)c1C(=O)c1cc(Cl)cc(Cl)c1  8.00
8  CCc1c(C)nc(O)c(N(C)C)c1C(=O)c1cccc(/C(C)=C/C#N)c1  8.70
9  O=C1Nc2ccc(Cl)cc2[C@@](C#CC2CC2)(C(F)(F)F)O1 [EFAVIRENZ]  8.30

----------
Tested on: Human immunodeficiency virus 1
test-details: Inhibitory activity against HIV-1 mutant strain 190A
Type: functional, organism-based
pIC50: −log10 of the molar value.
Entries annotated with measured pIC50
reported-metric: pIC50

In [3]: df
Out[3]:
                                   compound  reported_metric   val
0  CCc1c(C)nc(O)c(N(C)C)c1C(=O)c1cccc(Br)c1            pIC50  8.15
1  O=C1Nc2ccc(Cl)cc2[C@@](C#CC2CC2)(C(F)(F)F)O1 [EFAVIRENZ]            pIC50  8.00
2  CCOCn1c(Cc2ccccc2)c(C(C)C)c(=O)[nH]c1=O [EMIVIRINE]            pIC50  5.80
3  CCc1c(C)nc(O)c(N(C)C)c1C(=O)c1cc(Cl)cc(Cl)c1            pIC50  8.00

----------
System: Human immunodeficiency virus 1
test-details: Inhibitory activity against HIV-1 mutant strain 188L
Type: functional, organism-based
Rule for this label: Fulfilled means IC50 is less than 40 µM; Not fulfilled means IC50 is at least 40 µM.

In [3]: df
Out[3]:
                            compound_string          group
0  CCc1c(C)nc(O)c(N(C)C)c1C(=O)c1cccc(/C=C/c2cnccn2)c1      Fulfilled
1          CCc1c(C)nc(O)c(N(C)C)c1Cc1nccn1C  Not fulfilled
2  CCc1c(C)nc(O)c(N(C)C)c1C(=O)c1cccc(CO)c1      Fulfilled
3    CCc1c(C)nc(O)c(N(C)C)c1C(=O)c1ccc(C)o1  Not fulfilled
4  CCc1c(C)nc(O)c(N(C)C)c1Cc1cccc(/C=C/C#N)c1      Fulfilled
